target: Voltage-gated potassium channel subunit beta-2 (Rattus norvegicus); test: enhancers of rat Kvbeta2 NADPH turnover – biochemical, NADPH fluorescence, primary screen (AID 623); details: Recombinant KvBeta, NADPH fluorescence decrease slope, 10 min; at 10 µM; hits give low values;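 further: fluorescence intensity change per second fitted from 20 to 320 s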
experimental endpoint: NADPH fluorescence slope
Please reply with the value in numeric form only.

### Prompt # NADPH fluorescence slope lookup, item CCOC(=O)c1cc(C)n(CCc2cnc[nH]2)c1C
### Response -9.2e-05

### Prompt And C=CCC1(CN2CCCCCC2=O)C(=O)NC(=O)NC1=O ?
### Response -6.8e-05

### Prompt Also check CC1(C)CC(n2[nH]c(=O)c3c2NC(=O)CSC3c2ccccc2)CCO1 (stereo not drawn)
### Response -2.3e-05

### Prompt Quick one: COc1cc(/C=N/n2cnnc2)ccc1OC(=O)N(C)C
### Response 3.1e-05

### Prompt Subsequent entry: CC1(C)CC(=O)C=C(NCCN2CCN(C(=O)Cc3ccc(Cl)cc3)CC2)C1
### Response -4.2e-05

### Prompt Cool, now C=CCn1c(O)c(C=Nc2ccc(N(CC)CC)cc2)c(=O)[nH]c1=O
### Response -6.9e-05

### Prompt Note, next up: CCOc1ccc(-n2c(O)c(C=NCCN(CC)CC)c(=O)[nH]c2=O)cc1
### Response 1.2e-05

### Prompt Moving on to the next compound: Cc1ccnc(-n2c(-c3ccco3)nc3ccccc3c2=O)c1
### Response -3.8e-05

### Prompt Try this compound too: CN(C)CCc1nn[nH]n1
### Response -0.000339

### Prompt Follow-up item: CCOc1ccccc1-n1c(O)c(C=Nc2c(C)n(C)n(-c3ccccc3)c2=O)c(=O)[nH]c1=O
### Response -4.9e-06

### Prompt Similarly, C[C@]12CCC(=O)C=C1CC[C@@H]1[C@@H]2CC[C@]2(C)C(=O)CC[C@@H]12 ?
### Response 2.5e-05

### Prompt One more compound: CCC(=NCCOc1ccc(Cl)cc1)c1c(O)n(C)c(=O)n(C)c1=O
### Response -0.00015

### Prompt Request: COc1ccc(C(=O)CN2CCOCC2)cc1F
### Response -5.2e-05

----------
experiment: TLR3 IRF3 reporter activation blockers – cell-based, poly I:C stimulus, luciferase, 10K MLSCN set, primary screen (AID 602277); conditions: HEK293-TLR3 RL24 IRF3 luciferase reporter, at 10 µM, hits give high values
Kindly state inhibition for each of the entries shown.
Respond numerically; units are % and should not be typed.

### Prompt Item under review: CCC(COC(=O)c1cc(OC)c(OC)c(OC)c1)(c1ccccc1)N(C)C (stereo unspecified) . Reported inhibition?
### Response 35

### Prompt Then what about the compound c1ccc(C2CC3CC(c4ccco4)N2O3)cc1 (stereo unspecified) ?
### Response 16.9

### Prompt Also Cc1cccc(-n2c(O)c(C=NCCCN3CCOCC3)c(=O)[nH]c2=O)c1C ?
### Response 3.78

### Prompt Would you kindly repeat that for COc1cc(C2NCc3ccccc3-n3cccc32)ccc1O (stereo unspecified) ?
### Response -2.21

### Prompt Note, next up: COP(=O)(OC)C(O)C(Cl)(Cl)Cl (stereo unspecified)
### Response 39.8

### Prompt For O=c1[nH]c(=O)n(-c2ccc(F)cc2)c(O)c1C=Nc1ccccc1N1CCCC1 then?
### Response 14.6
